- tested_system: human TPST2 (Homo sapiens, UniProt O60704)
- Construct: TPST2 (residues Gly43–Leu359) enzymes lacking the transmembrane domains; made in house; host or cells: E. coli BL21 (DE3) pLysS
- Sequence (O60704 43-359): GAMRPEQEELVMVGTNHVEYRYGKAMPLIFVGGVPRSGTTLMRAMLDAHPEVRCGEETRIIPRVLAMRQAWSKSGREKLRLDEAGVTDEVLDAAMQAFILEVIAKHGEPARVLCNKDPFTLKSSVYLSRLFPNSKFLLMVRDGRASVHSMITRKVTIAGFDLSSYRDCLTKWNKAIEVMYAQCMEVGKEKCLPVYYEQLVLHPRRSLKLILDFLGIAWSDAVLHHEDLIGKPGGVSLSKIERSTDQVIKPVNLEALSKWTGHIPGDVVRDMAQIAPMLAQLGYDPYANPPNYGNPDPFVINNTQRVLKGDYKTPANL
- assay_name: Differential scanning fluorimetry (thermal shift) assay with TPST2
- Format: binding
- run_parameters: DSF, TPST2 5 µM, 0.5 mM nucleotide, panel of nucleotide-based cofactors
endpoint_name: Thermal shift of TPST2 (in words)

molecule: Nc1nc2c(ncn2[C@@H]2O[C@H](COP(=O)(O)OP(=O)(O)OP(=O)(O)O)[C@@H](O)[C@H]2O)c(=O)[nH]1 [GTP, guanosine 5′-triphosphate]
endpoint_name: Thermal shift of TPST2 (in words)
observed: marked stabilisation

molecule: CC(C)(COP(=O)(O)OP(=O)(O)OC[C@H]1O[C@@H](n2cnc3c(N)ncnc32)[C@H](O)[C@@H]1OP(=O)(O)O)[C@@H](O)C(=O)NCCC(=O)NCCS
endpoint_name: Thermal shift of TPST2 (in words)
observed: marked stabilisation

====

- tested_system: human TPST1 (Homo sapiens, UniProt O60507)
- Construct: human TPST1 (residues Lys43–Leu360) and TPST2 (residues Gly43–Leu359) enzymes lacking the transmembrane domains; made in house; host or cells: E. coli BL21 (DE3) pLysS
- assay_name: EZ Reader II microfluidic mobility-shift CC4-tide sulfation assay, TPST1
- Type: biochemical
- run_parameters: Fig 7C; TPST1 0.1 µM, CC4-tide, 10 µM PAPS, 30 min at 37°C, duplicate; read-out: TPST1 estimated IC50, PKIS inhibitors

compound: Nc1nc(-c2ccc3c(c2)C(=Cc2cc(Br)c(O)c(Br)c2)C(=O)N3)cs1 [GW407323A]
prefix_operator: =
IC50, µM: 6
--
compound: O=C1Nc2ccc(-c3cccnc3)cc2C1=Cc1cc(Br)c(O)c(Br)c1 [GW429374A]
prefix_operator: =
IC50, µM: 9.8
--
compound: O=C1Nc2ccc(C(=O)c3ccco3)cc2C1=Cc1cc(Cl)c(O)c(Cl)c1 [GW406108X]
prefix_operator: =
IC50, µM: 16
--
compound: COC(=O)c1ccc2c(c1)C(=Cc1cc(Br)c(O)c(Br)c1)C(=O)N2 [GW405841X]
prefix_operator: >
IC50, µM: 40

====

- tested_system: human TPST1 (Homo sapiens, UniProt O60507)
- Construct: human TPST1 (residues Lys43–Leu360) and TPST2 (residues Gly43–Leu359) enzymes lacking the transmembrane domains; made in house; host or cells: E. coli BL21 (DE3) pLysS
- Sequence (O60507 43-360): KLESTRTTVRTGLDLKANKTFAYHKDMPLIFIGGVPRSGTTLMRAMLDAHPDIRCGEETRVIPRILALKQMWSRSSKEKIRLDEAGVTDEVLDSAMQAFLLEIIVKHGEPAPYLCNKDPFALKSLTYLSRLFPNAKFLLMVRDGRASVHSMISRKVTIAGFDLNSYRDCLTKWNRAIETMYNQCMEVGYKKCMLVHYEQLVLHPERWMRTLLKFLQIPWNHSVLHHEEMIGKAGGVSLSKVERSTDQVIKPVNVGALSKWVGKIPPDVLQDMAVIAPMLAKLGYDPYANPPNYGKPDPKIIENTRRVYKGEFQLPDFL
- assay_name: Differential scanning fluorimetry (thermal shift) assay with TPST1
- Assay type: binding
- run_parameters: DSF, TPST1 5 µM, 0.5 mM nucleotide, panel of nucleotide-based cofactors

compound: CC(=O)SCCNC(=O)CCNC(=O)[C@H](O)C(C)(C)COP(=O)(O)OP(=O)(O)OC[C@H]1O[C@@H](n2cnc3c(N)ncnc32)[C@H](O)[C@@H]1OP(=O)(O)O [acetyl CoA]
tested_system: human TPST1 (Homo sapiens, UniProt O60507)
Thermal shift of TPST1 (in words): marked stabilisation
--
compound: CC(C)(COP(=O)(O)OP(=O)(O)OC[C@H]1O[C@@H](n2cnc3c(N)ncnc32)[C@H](O)[C@@H]1OP(=O)(O)O)[C@@H](O)C(=O)NCCC(=O)NCCS [CoA, coenzyme A]
tested_system: human TPST1 (Homo sapiens, UniProt O60507)
Thermal shift of TPST1 (in words): marked stabilisation
--
compound: Nc1ncnc2c1ncn2C1OC(COP(=O)(O)O)C(OP(=O)(O)O)C1O (stereo not shown) [PAP, adenosine 3′–5′-diphosphate]
tested_system: human TPST1 (Homo sapiens, UniProt O60507)
Thermal shift of TPST1 (in words): marked stabilisation
--
compound: Nc1ncnc2c1ncn2[C@@H]1O[C@H](COP(=O)(O)OP(=O)(O)O)[C@@H](O)[C@H]1O [ADP, adenosine 5′-diphosphate]
tested_system: human TPST1 (Homo sapiens, UniProt O60507)
Thermal shift of TPST1 (in words): marked stabilisation
--
compound: Nc1nc2c(ncn2[C@@H]2O[C@H](COP(=O)(O)OP(=O)(O)OP(=O)(O)O)[C@@H](O)[C@H]2O)c(=O)[nH]1 [GTP, guanosine 5′-triphosphate]
tested_system: human TPST1 (Homo sapiens, UniProt O60507)
Thermal shift of TPST1 (in words): marked stabilisation

====

- tested_system: human TPST1 (Homo sapiens)
- Construct: human TPST1 (residues Lys43–Leu360) and TPST2 (residues Gly43–Leu359) enzymes lacking the transmembrane domains; made in house; host or cells: E. coli BL21 (DE3) pLysS
- assay_name: EZ Reader II microfluidic mobility-shift CC4-tide sulfation assay, TPST1
- Type: biochemical
- run_parameters: TPST1 estimated IC50, RAF kinase inhibitors, Fig 8B; TPST1 0.1 µM pre-incubated with compound, 10 µM PAPS

smiles_record: CC(=O)c1c(O)c(C)c(O)c(Cc2c(O)c3c(c(C(=O)/C=C/c4ccccc4)c2O)OC(C)(C)C=C3)c1O
IC50, nM: 600

====

- tested_system: human TPST2 (Homo sapiens, UniProt O60704)
- Construct: TPST2 (residues Gly43–Leu359) enzymes lacking the transmembrane domains; made in house; host or cells: E. coli BL21 (DE3) pLysS
- assay_name: Differential scanning fluorimetry (thermal shift) assay with TPST2
- Format: binding
- run_parameters: DSF, TPST2 5 µM, 0.5 mM nucleotide, panel of nucleotide-based cofactors

molecule: Nc1ncnc2c1ncn2[C@@H]1O[C@H](COP(=O)(O)OP(=O)(O)O)[C@@H](O)[C@H]1O [ADP, adenosine 5′-diphosphate]
Thermal shift of TPST2 (in words): marked stabilisation

molecule: Nc1ncnc2c1ncn2C1OC(COP(=O)(O)O)C(OP(=O)(O)O)C1O (stereo not drawn) [PAP, adenosine 3′–5′-diphosphate]
Thermal shift of TPST2 (in words): marked stabilisation

molecule: CC(=O)SCCNC(=O)CCNC(=O)[C@H](O)C(C)(C)COP(=O)(O)OP(=O)(O)OC[C@H]1O[C@@H](n2cnc3c(N)ncnc32)[C@H](O)[C@@H]1OP(=O)(O)O [acetyl CoA]
Thermal shift of TPST2 (in words): marked stabilisation

====

- tested_system: human TPST1 (Homo sapiens)
- Construct: human TPST1 (residues Lys43–Leu360) and TPST2 (residues Gly43–Leu359) enzymes lacking the transmembrane domains; made in house; host or cells: E. coli BL21 (DE3) pLysS
- Sequence (O60507 43-360): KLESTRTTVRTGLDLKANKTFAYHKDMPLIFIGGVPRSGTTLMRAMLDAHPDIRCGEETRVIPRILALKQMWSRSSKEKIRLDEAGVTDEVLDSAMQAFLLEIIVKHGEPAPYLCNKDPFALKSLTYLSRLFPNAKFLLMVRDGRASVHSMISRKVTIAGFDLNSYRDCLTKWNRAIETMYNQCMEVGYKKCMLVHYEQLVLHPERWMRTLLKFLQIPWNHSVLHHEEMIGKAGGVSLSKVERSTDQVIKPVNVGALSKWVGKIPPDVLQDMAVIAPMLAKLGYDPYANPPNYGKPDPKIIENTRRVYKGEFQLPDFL
- assay_name: EZ Reader II microfluidic mobility-shift CC4-tide sulfation assay, TPST1
- Assay type: biochemical
- run_parameters: Fig 8B; TPST1 0.1 µM pre-incubated with compound, 10 µM PAPS; read-out: TPST1 estimated IC50, RAF kinase inhibitors

smiles_record: Cn1c(Nc2ccc(C(F)(F)F)cc2)nc2cc(Oc3ccnc(-c4ncc(C(F)(F)F)[nH]4)c3)ccc21
IC50: 6.5 µM
//
smiles_record: CCCS(=O)(=O)Nc1ccc(F)c(C(=O)c2c[nH]c3ncc(Cl)cc23)c1F
IC50: > 400 µM
//
smiles_record: Cc1ccc(NC(=O)c2cccc(N(C)C)c2)cc1NC(=O)c1ccc(O)cc1
IC50: 253 µM
//
smiles_record: CC(C)(C)c1nc(-c2cccc(NS(=O)(=O)c3c(F)cccc3F)c2F)c(-c2ccnc(N)n2)s1
IC50: 269 µM
//
smiles_record: CNC(=O)c1cc(Oc2ccc(NC(=O)Nc3ccc(Cl)c(C(F)(F)F)c3)cc2)ccn1
IC50: 119 µM
